Data provenance: patent US20140249105A1

System: B16 melanocytes
assay-overview: Viability of the cells, test of reduction of MTT
Assay type: cell-based
condition-details: 72 h; 100 μM
Entries and their Viability (MTT) % stimulated control
Enter your answer as a number in % stimulated control; do not include the unit.

[
  {
    "molecule": "O=C(NC1CCC(NC(=O)C(F)=CCCCCCO)C1)C(F)=CCCCCCO (racemic) [c115]",
    "unit-tag": "% stimulated control",
    "Viability (MTT) % stimulated control": 97
  }
]

input: For the record O=C(NC1CC1NC(=O)C(F)=CCCCCCOC1CCCCO1)C(F)=CCCCCCOC1CCCCO1 (centres unmarked) [c111] , what value of Viability (MTT) % stimulated control is listed for B16 melanocytes?
output: 57

input: Also check O=C(NC1CCCC1NC(=O)C(F)=CCCCCCCCCOC1CCCCO1)C(F)=CCCCCCCCCOC1CCCCO1 (mixture of isomers)
output: 104

input: Also check O=C(NC1CCC(NC(=O)C(F)=CCCCCCCCOC2CCCCO2)C1)C(F)=CCCCCCCCOC1CCCCO1 (mixture of isomers)
output: 78
